Species on record: Rattus norvegicus
assay_protocol: Open TG-GATES - Regimen: Single
Format: toxicity, organism-based, Sprague-Dawley
Set-up: regimen Single, gender Male, age 6 weeks
applied_conditions: in vivo, po, 0 mg/kg, 9 h, tissue Plasma, route gavage, dose level Control
Label Satisfied when TG is strictly below 60 mg/dL; at or above that, label Not satisfied.

The examples below pair each entry with its known result.
| compound | category_label |
| --- | --- |
| COc1ccc(O)c(C(C)(C)C)c1.COc1ccc(O)cc1C(C)(C)C [BUTYLATED HYDROXYANISOLE] | Satisfied |
| Cc1cnc(NC(=O)C2=C(O)c3ccccc3S(=O)(=O)N2C)s1 | Not satisfied |
| CNCCC(Oc1ccc(C(F)(F)F)cc1)c1ccccc1.Cl (stereo not given) [FLUOXETINE HYDROCHLORIDE] | Not satisfied |
| O=C1CN(/N=C/c2ccc(-c3ccc([N+](=O)[O-])cc3)o2)C(O)=N1 | Satisfied |

Problem: For the compound `C=CCO` , is TG under 60 mg/dL?
Not satisfied
